target: Protein kinase C theta type (Homo sapiens); experiment: Inhibition of PKCtheta (unknown origin) at 50 nM by Z'LYTE screening method relative to control
Sequence (Q04759 whole entry, looked up): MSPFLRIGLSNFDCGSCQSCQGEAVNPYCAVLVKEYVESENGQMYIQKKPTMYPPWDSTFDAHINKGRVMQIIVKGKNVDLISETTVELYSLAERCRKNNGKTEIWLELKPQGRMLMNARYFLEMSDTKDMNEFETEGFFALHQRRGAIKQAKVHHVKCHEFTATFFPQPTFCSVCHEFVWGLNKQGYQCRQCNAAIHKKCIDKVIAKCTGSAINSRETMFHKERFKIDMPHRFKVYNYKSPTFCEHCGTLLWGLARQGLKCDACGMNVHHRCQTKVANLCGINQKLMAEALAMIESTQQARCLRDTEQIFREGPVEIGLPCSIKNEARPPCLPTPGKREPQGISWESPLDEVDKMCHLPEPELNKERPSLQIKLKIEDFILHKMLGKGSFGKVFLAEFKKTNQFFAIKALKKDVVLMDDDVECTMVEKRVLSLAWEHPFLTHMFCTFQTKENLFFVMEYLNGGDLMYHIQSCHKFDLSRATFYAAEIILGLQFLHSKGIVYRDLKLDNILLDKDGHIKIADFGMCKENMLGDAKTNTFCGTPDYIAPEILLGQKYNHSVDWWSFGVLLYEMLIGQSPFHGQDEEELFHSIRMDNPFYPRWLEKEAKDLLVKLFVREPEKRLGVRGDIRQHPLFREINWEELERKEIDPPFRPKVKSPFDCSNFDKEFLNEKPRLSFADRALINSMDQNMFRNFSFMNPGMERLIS
The molecules listed here are annotated with their inhibition.
Kindly provide the numeric value in % only, without the unit symbol.

INSERT INTO assay_data (molecule, unit_label, result) VALUES
  ('O=c1c2ccccc2[se]n1-c1nc(N[C@H]2CCOC2)c2nc[nH]c2n1', '%', 85),
  ('O=C1c2ccccc2CN1c1nc(NC2CCCCC2)c2nc[nH]c2n1', '%', 0),
  ('O=c1c2ccccc2[se]n1-c1nc(NC2CCCCC2)c2nc[nH]c2n1', '%', 62);

Below: the item to evaluate.
What value of inhibition has been reported for the following molecule? CCN(CC)CCCC(C)Nc1nc(N2Cc3ccccc3C2=O)nc2[nH]cnc12 (centres undefined)
12
